# TARGET_OR_SYSTEM: PDK1(h) (Homo sapiens, UniProt O15530)
# Sequence (O15530 1-556): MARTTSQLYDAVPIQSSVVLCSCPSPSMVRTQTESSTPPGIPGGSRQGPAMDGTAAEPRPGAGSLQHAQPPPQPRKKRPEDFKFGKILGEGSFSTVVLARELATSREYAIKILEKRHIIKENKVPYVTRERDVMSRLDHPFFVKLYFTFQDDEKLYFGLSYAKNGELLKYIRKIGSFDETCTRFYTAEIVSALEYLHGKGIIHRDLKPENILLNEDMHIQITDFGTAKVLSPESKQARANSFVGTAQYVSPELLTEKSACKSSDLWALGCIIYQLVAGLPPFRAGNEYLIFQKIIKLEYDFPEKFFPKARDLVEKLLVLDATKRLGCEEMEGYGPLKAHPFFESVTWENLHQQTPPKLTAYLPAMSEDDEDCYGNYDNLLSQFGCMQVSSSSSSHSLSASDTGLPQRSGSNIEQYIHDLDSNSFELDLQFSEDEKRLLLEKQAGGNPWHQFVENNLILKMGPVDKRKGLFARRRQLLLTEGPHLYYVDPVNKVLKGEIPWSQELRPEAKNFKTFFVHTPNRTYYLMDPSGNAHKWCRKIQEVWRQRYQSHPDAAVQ
# ASSAY_INFO: Protein kinase selectivity panel
# Type: biochemical
# CONDITION_LABEL: 1.0 μM compound, 10 μM ATP
Catalogue of Activity at Protein Kinase Assays (% of control), PDK1(h) values
TEST_READOUT: Activity at Protein Kinase Assays (% of control), PDK1(h)

>>> print(df.to_string())
                            compound_smiles    reported_value
0  O=C1NC(=O)C2=C1c1cn(c3ccccc13)CCCc1ccc(c(N3CCCC3)n1)CCCn1cc2c2ccccc21  100 % of control
1  CN(C)c1cc2cc(n1)CCCn1cc(c3ccccc31)C1=C(C(=O)NC1=O)c1cn(c3ccccc13)CCC2  104 % of control
2  CN(C)c1nc2ccc1CCCCn1cc(c3ccccc31)C1=C(C(=O)NC1=O)c1cn(c3ccccc13)CCC2  115 % of control
3  O=C1NC(=O)C2=C1c1cn(c3ccccc13)CCCc1cc(nc(N3CCCC3)c1)CCCn1cc2c2ccccc21  107 % of control

----------
# TARGET_OR_SYSTEM: SAPK2a(h) (Homo sapiens)
# Sequence (Q16539 whole entry): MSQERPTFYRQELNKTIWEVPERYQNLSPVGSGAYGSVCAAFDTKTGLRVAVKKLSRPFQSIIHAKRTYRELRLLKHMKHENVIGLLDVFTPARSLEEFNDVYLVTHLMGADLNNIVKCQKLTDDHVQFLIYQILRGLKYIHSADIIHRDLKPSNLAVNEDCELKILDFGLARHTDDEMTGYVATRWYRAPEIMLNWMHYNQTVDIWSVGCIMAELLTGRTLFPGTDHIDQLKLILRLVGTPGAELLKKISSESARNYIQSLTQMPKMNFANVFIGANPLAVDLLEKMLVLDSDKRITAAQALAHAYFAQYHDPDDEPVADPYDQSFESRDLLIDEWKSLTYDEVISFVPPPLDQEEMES
# ASSAY_INFO: Protein kinase selectivity panel
# Format: biochemical
# CONDITION_LABEL: 1.0 μM compound, 10 μM ATP
# Description: Protein kinase selectivity assays were performed as described in the scientific literature (Davies, S. P., et al., Biochem. J. 2000, 351, 95-105). Briefly, protein kinases were assayed for their ability to phosphorylate the appropriate peptide/protein substrates in the presence of 1.0 μM compound. Assays were done using 10 μM ATP and were linear with respect to time. […]
Measured Activity at Protein Kinase Assays (% of control), SAPK2a(h) values are reported for all entries that follow.
TEST_READOUT: Activity at Protein Kinase Assays (% of control), SAPK2a(h)

>>> df
                            compound_smiles    reported_value
0  CN(C)c1cc2cc(n1)CCCn1cc(c3ccccc31)C1=C(C(=O)NC1=O)c1cn(c3ccccc13)CCC2   92 % of control
1  O=C1NC(=O)C2=C1c1cn(c3ccccc13)CCCc1cc(nc(N3CCCC3)c1)CCCn1cc2c2ccccc21   92 % of control
2  O=C1NC(=O)C2=C1c1cn(c3ccccc13)CCCc1ccc(c(N3CCCC3)n1)CCCn1cc2c2ccccc21   93 % of control
3  CN(C)c1nc2ccc1CCCCn1cc(c3ccccc31)C1=C(C(=O)NC1=O)c1cn(c3ccccc13)CCC2  108 % of control

----------
Activity at Protein Kinase Assays (% of control), Yes(h) reference
# TARGET_OR_SYSTEM: Yes(h) (Homo sapiens, UniProt P07947)
# Construct: purchased Upstate Cell Signaling Solutions (KinaseProfiler Selectivity Screening Service)
# Sequence (P07947 whole entry): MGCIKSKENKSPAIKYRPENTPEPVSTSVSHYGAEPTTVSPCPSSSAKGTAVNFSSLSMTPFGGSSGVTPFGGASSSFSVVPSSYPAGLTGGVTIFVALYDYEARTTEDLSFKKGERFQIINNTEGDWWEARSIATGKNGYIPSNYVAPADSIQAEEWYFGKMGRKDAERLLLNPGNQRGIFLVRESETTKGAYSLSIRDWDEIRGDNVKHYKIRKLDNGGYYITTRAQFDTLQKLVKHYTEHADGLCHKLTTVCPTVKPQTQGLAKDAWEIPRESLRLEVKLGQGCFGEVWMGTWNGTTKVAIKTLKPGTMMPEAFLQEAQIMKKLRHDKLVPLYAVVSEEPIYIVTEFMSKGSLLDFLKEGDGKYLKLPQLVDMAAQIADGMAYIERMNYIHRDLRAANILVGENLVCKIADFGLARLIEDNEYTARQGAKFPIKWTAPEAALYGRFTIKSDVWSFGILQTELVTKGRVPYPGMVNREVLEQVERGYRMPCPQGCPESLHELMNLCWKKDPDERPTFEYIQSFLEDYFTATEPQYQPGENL
# ASSAY_INFO: Protein kinase selectivity panel
# Format: biochemical
# CONDITION_LABEL: 1.0 μM compound, 10 μM ATP
TEST_READOUT: Activity at Protein Kinase Assays (% of control), Yes(h)

>>> print(df.to_string())
                                   compound   reported_value
0  CN(C)c1cc2cc(n1)CCCn1cc(c3ccccc31)C1=C(C(=O)NC1=O)c1cn(c3ccccc13)CCC2 [Cpd 2]  79 % of control
1  CN(C)c1nc2ccc1CCCCn1cc(c3ccccc31)C1=C(C(=O)NC1=O)c1cn(c3ccccc13)CCC2 [Cpd 1]  96 % of control
2  O=C1NC(=O)C2=C1c1cn(c3ccccc13)CCCc1ccc(c(N3CCCC3)n1)CCCn1cc2c2ccccc21 [Cpd 7]  43 % of control
3  O=C1NC(=O)C2=C1c1cn(c3ccccc13)CCCc1cc(nc(N3CCCC3)c1)CCCn1cc2c2ccccc21 [Cpd 6]  58 % of control

----------
# TARGET_OR_SYSTEM: PKCη(h) (Homo sapiens)
# Sequence (P24723 whole entry): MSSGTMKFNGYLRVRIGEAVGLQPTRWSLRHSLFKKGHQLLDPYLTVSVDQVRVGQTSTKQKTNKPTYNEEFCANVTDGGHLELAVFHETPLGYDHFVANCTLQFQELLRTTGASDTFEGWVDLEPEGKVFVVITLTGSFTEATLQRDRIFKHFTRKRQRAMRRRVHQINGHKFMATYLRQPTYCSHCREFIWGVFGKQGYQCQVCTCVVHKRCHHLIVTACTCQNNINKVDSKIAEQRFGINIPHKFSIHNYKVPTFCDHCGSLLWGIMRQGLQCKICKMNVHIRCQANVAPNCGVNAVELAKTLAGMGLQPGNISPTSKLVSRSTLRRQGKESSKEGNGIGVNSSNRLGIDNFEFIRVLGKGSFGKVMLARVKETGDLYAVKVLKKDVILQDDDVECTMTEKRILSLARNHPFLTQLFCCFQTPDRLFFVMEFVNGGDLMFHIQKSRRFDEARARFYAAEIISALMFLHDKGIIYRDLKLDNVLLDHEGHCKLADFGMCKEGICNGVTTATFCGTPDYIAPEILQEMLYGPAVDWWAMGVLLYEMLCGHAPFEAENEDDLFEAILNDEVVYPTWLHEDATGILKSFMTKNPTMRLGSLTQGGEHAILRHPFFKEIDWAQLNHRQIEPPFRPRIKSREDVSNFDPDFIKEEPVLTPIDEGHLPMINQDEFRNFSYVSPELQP
# ASSAY_INFO: Protein kinase selectivity panel
# Type: biochemical
# CONDITION_LABEL: 1.0 μM compound, 10 μM ATP
# Experimental: Protein kinase selectivity assays were performed as described in the scientific literature (Davies, S. P., et al., Biochem. J. 2000, 351, 95-105). Briefly, protein kinases were assayed for their ability to phosphorylate the appropriate peptide/protein substrates in the presence of 1.0 μM compound. Assays were done using 10 μM ATP and were linear with respect to time. […]
TEST_READOUT: Activity at Protein Kinase Assays (% of control), PKCη(h)

>>> print(df.to_string())
                            compound_smiles        target_or_system    reported_value
0  CN(C)c1nc2ccc1CCCCn1cc(c3ccccc31)C1=C(C(=O)NC1=O)c1cn(c3ccccc13)CCC2  PKCη(h) (Homo sapiens)   85 % of control
1  O=C1NC(=O)C2=C1c1cn(c3ccccc13)CCCc1cc(nc(N3CCCC3)c1)CCCn1cc2c2ccccc21  PKCη(h) (Homo sapiens)  102 % of control
2  CN(C)c1cc2cc(n1)CCCn1cc(c3ccccc31)C1=C(C(=O)NC1=O)c1cn(c3ccccc13)CCC2  PKCη(h) (Homo sapiens)  109 % of control
3  O=C1NC(=O)C2=C1c1cn(c3ccccc13)CCCc1ccc(c(N3CCCC3)n1)CCCn1cc2c2ccccc21  PKCη(h) (Homo sapiens)   97 % of control

----------
# TARGET_OR_SYSTEM: GSK3α(h) (Homo sapiens, UniProt P49840)
# Sequence (P49840 whole entry): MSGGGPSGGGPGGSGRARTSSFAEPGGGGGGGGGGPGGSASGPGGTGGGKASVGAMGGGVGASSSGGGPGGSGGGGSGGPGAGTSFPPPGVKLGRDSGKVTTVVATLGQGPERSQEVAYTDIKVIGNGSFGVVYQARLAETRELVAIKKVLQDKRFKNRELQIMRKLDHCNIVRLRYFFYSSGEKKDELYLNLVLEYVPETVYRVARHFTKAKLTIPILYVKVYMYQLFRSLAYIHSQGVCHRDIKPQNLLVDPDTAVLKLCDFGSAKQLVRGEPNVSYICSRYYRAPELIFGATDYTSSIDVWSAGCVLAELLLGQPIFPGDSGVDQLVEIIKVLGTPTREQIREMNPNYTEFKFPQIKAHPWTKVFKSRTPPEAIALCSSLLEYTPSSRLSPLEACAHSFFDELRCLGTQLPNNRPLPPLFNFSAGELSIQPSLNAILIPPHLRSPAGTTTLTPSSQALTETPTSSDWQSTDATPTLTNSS
# ASSAY_INFO: Protein kinase selectivity panel
# Assay type: biochemical
# CONDITION_LABEL: 1.0 μM compound, 10 μM ATP
# Activity at Protein Kinase Assays (% of control), GSK3α(h) values compiled below
TEST_READOUT: Activity at Protein Kinase Assays (% of control), GSK3α(h)

>>> df
                                   compound  reported_value
0  CN(C)c1cc2cc(n1)CCCn1cc(c3ccccc31)C1=C(C(=O)NC1=O)c1cn(c3ccccc13)CCC2 [Cpd 2]  3 % of control
1  O=C1NC(=O)C2=C1c1cn(c3ccccc13)CCCc1ccc(c(N3CCCC3)n1)CCCn1cc2c2ccccc21 [Cpd 7]  9 % of control
2  O=C1NC(=O)C2=C1c1cn(c3ccccc13)CCCc1cc(nc(N3CCCC3)c1)CCCn1cc2c2ccccc21 [Cpd 6]  4 % of control
3  CN(C)c1nc2ccc1CCCCn1cc(c3ccccc31)C1=C(C(=O)NC1=O)c1cn(c3ccccc13)CCC2 [Cpd 1]  4 % of control

----------
Listed here are compounds together with their documented Activity at Protein Kinase Assays (% of control), PKCζ(h).
# TARGET_OR_SYSTEM: PKCζ(h) (Homo sapiens, UniProt Q05513)
# Sequence (Q05513 whole entry): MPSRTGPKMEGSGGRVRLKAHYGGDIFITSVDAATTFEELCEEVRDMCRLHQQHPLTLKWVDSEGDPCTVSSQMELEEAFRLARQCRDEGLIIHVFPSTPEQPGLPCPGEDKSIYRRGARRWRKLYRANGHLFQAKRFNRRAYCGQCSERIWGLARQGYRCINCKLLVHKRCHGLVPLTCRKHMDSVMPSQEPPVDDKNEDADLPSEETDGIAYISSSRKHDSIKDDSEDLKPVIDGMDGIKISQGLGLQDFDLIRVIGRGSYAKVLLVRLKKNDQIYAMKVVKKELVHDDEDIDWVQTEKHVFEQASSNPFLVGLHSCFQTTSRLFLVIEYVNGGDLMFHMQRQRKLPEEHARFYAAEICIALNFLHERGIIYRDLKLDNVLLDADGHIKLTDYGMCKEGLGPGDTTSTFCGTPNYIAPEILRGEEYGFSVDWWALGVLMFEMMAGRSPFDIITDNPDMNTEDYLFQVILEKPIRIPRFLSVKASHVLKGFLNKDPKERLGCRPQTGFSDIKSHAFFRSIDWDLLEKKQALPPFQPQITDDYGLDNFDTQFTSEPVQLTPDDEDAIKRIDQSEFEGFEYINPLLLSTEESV
# ASSAY_INFO: Protein kinase selectivity panel
# Type: biochemical
# CONDITION_LABEL: 1.0 μM compound, 10 μM ATP
TEST_READOUT: Activity at Protein Kinase Assays (% of control), PKCζ(h)

                            compound_smiles    reported_value
0  O=C1NC(=O)C2=C1c1cn(c3ccccc13)CCCc1ccc(c(N3CCCC3)n1)CCCn1cc2c2ccccc21  116 % of control
1  CN(C)c1cc2cc(n1)CCCn1cc(c3ccccc31)C1=C(C(=O)NC1=O)c1cn(c3ccccc13)CCC2  105 % of control
2  O=C1NC(=O)C2=C1c1cn(c3ccccc13)CCCc1cc(nc(N3CCCC3)c1)CCCn1cc2c2ccccc21   99 % of control
3  CN(C)c1nc2ccc1CCCCn1cc(c3ccccc31)C1=C(C(=O)NC1=O)c1cn(c3ccccc13)CCC2   98 % of control
